# ASSAY OVERVIEW: chemical genetic growth profiling, strain panel (AID 1159580);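 further: tested at 20 µM; growth read once vehicle control cultures reached saturation at 30 °C; 1 = growth at the plate median or of vehicle wells; lower values mean less growth of the strain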
# CONDITION DETAILS: S. cerevisiae deletion strains, growth OD, locus YLR342W, strain FKS1, active compounds read low
Screen size: about 5,500 compounds; about 2,000 (36%) were called active. About 18% were inconclusive and are not listed. The list shows a part of the results.
Lab note: anything with normalized growth below 1 is marked Criterion met; values at 1 or higher are marked Criterion not met.

{"columns": ["MOLECULE", "LABEL"],
 "data": [
  ["CSc1nc(NC(C)C)nc(NC(C)C)n1", "Criterion met"]
]}

Query :: For `C=CCSSCC=C` , is the recorded normalized growth below the cut-off of 1?
Result :: Criterion not met

Query :: For C/C=C/CC(C)C(O)C1C(=O)NC(CC)C(=O)N(C)CC(=O)N(C)C(CC(C)C)C(=O)NC(C(C)C)C(=O)N(C)C(CC(C)C)C(=O)NC(C)C(=O)NC(C)C(=O)N(C)C(CC(C)C)C(=O)N(C)C(CC(C)C)C(=O)N(C)C(C(C)C)C(=O)N1C (centres undefined) , is the recorded normalized growth below the cut-off of 1?
Result :: Criterion met

---

Recorded measurements of normalized growth, one per entry
# ASSAY OVERVIEW: chemical genetic growth profiling, strain panel (AID 1159580);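 further: tested at 20 µM; growth read once vehicle control cultures reached saturation at 30 °C; 1 = growth at the plate median or of vehicle wells; lower values mean less growth of the strain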
# CONDITION DETAILS: S. cerevisiae deletion strains, growth OD, locus YOR144C, strain elg1, active compounds read low
Among all 5,500 compounds or so, about 2,000 (36%) were called active. Not shown: some 18% with an inconclusive outcome. The list shows a part of the results.
Keep it simple and answer with nothing but the number.

normalized growth reading for CC(=O)OCC(=O)[C@@]1(O)CCC2C3C[C@H](C)C4=CC(=O)C=CC4(C)C3[C@@H](O)CC21C (some centres undefined) : 1.01

---

# ASSAY OVERVIEW: chemical genetic growth profiling, strain panel (AID 1159580);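 further: tested at 20 µM; growth read once vehicle control cultures reached saturation at 30 °C; 1 = growth at the plate median or of vehicle wells; lower values mean less growth of the strain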
# CONDITION DETAILS: S. cerevisiae deletion strains, growth OD, locus YLR039C, strain RIC1, active compounds read low
Out of some 5,500 compounds screened, about 2,000 (36%) were called active. About 18% were inconclusive and are not listed. The list shows a part of the results.
Lab note: anything with normalized growth below 1 is marked Y; values at 1 or higher are marked N.

Answered cases to consult:
{"columns": ["MOLECULE", "LABEL"],
 "data": [
  ["CCN(CCS(=O)(=O)c1ccc(C)cc1)S(=O)(=O)c1ccccc1", "N"],
  ["CC1(C)[C@@H]2CC[C@@]1(C)C(=O)C2", "N"],
  ["CC(=O)O[C@@H]1CC2C(C)(C)CCC[C@]2(C)C2CC[C@]3(C)C(=CC(=O)O[C@H]3c3ccoc3)[C@@]21C (some centres not stated)", "Y"]
]}

Query :: For `CCOC(=O)C1=C(O)C(=O)N(Cc2ccccc2)C1` , is the recorded normalized growth below the cut-off of 1?
Result :: N

Query :: For `Cc1nnsc1C(=O)O/N=C1/CCSc2ccc(F)cc21` , is the recorded normalized growth below the cut-off of 1?
Result :: Y

---

# ASSAY OVERVIEW: chemical genetic growth profiling, strain panel (AID 1159580);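 further: tested at 20 µM; growth read once vehicle control cultures reached saturation at 30 °C; 1 = growth at the plate median or of vehicle wells; lower values mean less growth of the strain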
# CONDITION DETAILS: S. cerevisiae deletion strains, growth OD, locus YDR334W, strain swr1
About 2,000 (36%) of roughly 5,500 compounds were called active. About 18% were inconclusive and are not listed. No stated cut-off is given here; in the data, active means normalized growth mostly below about 0.91 (no sharp cut-off); inconclusive means no clear call, values can overlap the other calls; inactive means mostly above about 0.92. This is one part of the list.
Select the correct class. Options are active, inactive and nothing else.

Answered cases to consult:
{"columns": ["MOLECULE", "LABEL"],
 "data": [
  ["CC(=O)N1CCN(c2ccc(OCC3CO[C@](Cn4ccnc4)(c4ccc(Cl)cc4Cl)O3)cc2)CC1 (stereo partly drawn)", "active"],
  ["COC1CC(O[C@H]2CC[C@]3(C=O)C4CC[C@]5(C)C(C6=CC(=O)OC6)CC[C@]5(O)C4CC[C@]3(O)C2)OC(C)C1O (stereo partly drawn)", "inactive"],
  ["C[C@@H]1CC[C@@]23CCC4(C)[C@@](C=CC5[C@@]6(C)CC[C@H](O)C(C)(C)C6CC[C@]54C)(OC2=O)C3[C@H]1C (stereo partly drawn)", "inactive"],
  ["C[C@H]1O[C@@H](O[C@H]2[C@@H](O)C[C@H](O[C@H]3[C@@H](O)C[C@H](O[C@H]4CC[C@]5(C)C6C[C@@H](O)[C@]7(C)[C@@H](C8=CC(=O)OC8)CC[C@]7(O)C6CC[C@@H]5C4)O[C@@H]3C)O[C@@H]2C)C[C@H](O)[C@@H]1O (stereo partly drawn)", "inactive"],
  ["CC(C)(C)NCC(O)COc1cccc2c1C[C@H](O)[C@H](O)C2 (stereo partly drawn)", "inactive"],
  ["COP(N)(=O)SC (stereo not drawn)", "inactive"],
  ["CC1(C)C(O)CC(=O)C2(C)C1CC(O)C1(C)C2CCC2(C)C(c3ccoc3)OC(=O)C3OC321 (stereo not drawn)", "inactive"],
  ["COC1C(O)C(O[C@H]2CC[C@]3(C=O)C4C(CC[C@]3(O)C2)[C@@]2(O)CC[C@H](C3=CC(=O)OC3)[C@@]2(C)C[C@H]4OC(C)=O)OC(C)C1OC(C)=O (stereo partly drawn)", "inactive"]
]}

Query :: What did this assay record as the result for `CC[C@@]1(O)C(=O)OCc2c1cc1n(c2=O)Cc2cc3cc(O)ccc3nc2-1` ?
Result :: inactive

Query :: What did this assay record as the result for COC1CC(OC2CCC3(C)C(CCC4C3CCC3(C)C(C5=CC(=O)OC5)C(OC(C)=O)CC43O)C2)OC(C)C1O (stereo not drawn) ?
Result :: inactive
